Listing: shrunken log2 fold change of selected sequences
- Test system: Escherichia coli TOP10
- Test Summary: shrunken log2 fold change of peptide-encoding DNA abundance (4.5 h post-induction vs induction); higher = less antimicrobial activity (less host growth inhibition)
- Particulars: time post-induction: 4.5 h; library: site-saturation at positions 5, 18, 19, 20
Form rule: numeric answer, no unit written next to it.

These solved cases illustrate the format of a correct answer.
RRIRFRPPRLPRPRPRPNDYPRP; -0.355
RRIRARPPRLPRPRPRPDMSPRP; 0.0274
RRIRIRPPRLPRPRPRPMCKPRP; -0.262
RRIRCRPPRLPRPRPRPPTTPRP; 0.353
RRIRYRPPRLPRPRPRPSTWPRP; -0.647
RRIRCRPPRLPRPRPRPCEKPRP; 0.0534
RRIRDRPPRLPRPRPRPWRDPRP; -0.0505
RRIRDRPPRLPRPRPRPAPYPRP; -0.352
RRIRCRPPRLPRPRPRPGGWPRP; 0.656
RRIRERPPRLPRPRPRPQEVPRP; -0.0156

Exercise: Can you share its shrunken log2 fold change? I mean this sequence: RRIRIRPPRLPRPRPRPKRGPRP
Key: 0.2

Exercise: Next sequence up: RRIRRRPPRLPRPRPRPRKLPRP
Key: 0.253

Exercise: // repeat for RRIRMRPPRLPRPRPRPCQMPRP and report
Key: 0.00911

Exercise: Same again, this time with RRIRNRPPRLPRPRPRPDCAPRP
Key: 0.315

Exercise: Subsequent entry: RRIRHRPPRLPRPRPRPFGDPRP
Key: -0.257

---

Recorded shrunken log2 fold change for the following sequences
- Test system: Escherichia coli TOP10
- Test Summary: shrunken log2 fold change of peptide-encoding DNA abundance (4.5 h post-induction vs induction); higher = less antimicrobial activity (less host growth inhibition)
- Particulars: time post-induction: 4.5 h; library: site-saturation at positions 5, 18, 19, 20
// return a plain number; no unit text

Field: example entries. Status: answers known.
RRIRWRPPRLPRPRPRPAIWPRP; 0.596
RRIRIRPPRLPRPRPRPMDTPRP; 0.0627
RRIRARPPRLPRPRPRPYIMPRP; -0.675
RRIRIRPPRLPRPRPRPDRNPRP; -0.913

Exercise: Consider the sequence RRIRSRPPRLPRPRPRPMANPRP and give its measured shrunken log2 fold change.
Key: -0.397

Exercise: And RRIRGRPPRLPRPRPRPWGVPRP ?
Key: 0.287

Exercise: # repeat for RRIRVRPPRLPRPRPRPSVNPRP
Key: -0.291

Exercise: Param item: RRIRIRPPRLPRPRPRPPWLPRP
Key: 0.412

Exercise: Try RRIRWRPPRLPRPRPRPHRQPRP next.
Key: -0.165

Exercise: Consider next the sequence RRIRCRPPRLPRPRPRPWWIPRP in the same way.
Key: -0.655

Exercise: Repeat with RRIRRRPPRLPRPRPRPSYIPRP
Key: -0.416

---

- Tested on: Escherichia coli TOP10;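 also: peptides expressed intracellularly from a pBAD plasmid library in pooled LB shake-flask culture, induced with 0.3% L-arabinose, DNA abundance read by NGS, three biological replicates, DESeq2 with apeglm shrinkage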
- Test Summary: shrunken log2 fold change of peptide-encoding DNA abundance (4.5 h post-induction vs induction); higher = less antimicrobial activity (less host growth inhibition)
- Particulars: time post-induction: 4.5 h; library: site-saturation at positions 5, 18, 19, 20
Okay, here is how we bin by shrunken log2 fold change: c1 = under -0.2, c2 = from -0.2 up to -0.02, c3 = -0.02 and over

RRIRLRPPRLPRPRPRPGKNPRP; c1

Exercise: Any idea which band RRIRYRPPRLPRPRPRPFEEPRP is in?
Key: c2

Exercise: Then this sequence: RRIRFRPPRLPRPRPRPTKKPRP
Key: c2

Exercise: Please do the same for RRIRSRPPRLPRPRPRPRPTPRP as well.
Key: c3

Exercise: Next sequence up: RRIRIRPPRLPRPRPRPESLPRP
Key: c1

Exercise: // repeat for RRIRERPPRLPRPRPRPNDLPRP and report
Key: c3

Exercise: Same lookup for RRIRERPPRLPRPRPRPETCPRP , please.
Key: c2
